# test-summary: self-splicing fitness, log relative to wild type (ln ratio); higher = more splicing; Tetrahymena group I intron in knt gene, E. coli kanamycin selection, DiMSum; sequences stand for … in CUCUCU…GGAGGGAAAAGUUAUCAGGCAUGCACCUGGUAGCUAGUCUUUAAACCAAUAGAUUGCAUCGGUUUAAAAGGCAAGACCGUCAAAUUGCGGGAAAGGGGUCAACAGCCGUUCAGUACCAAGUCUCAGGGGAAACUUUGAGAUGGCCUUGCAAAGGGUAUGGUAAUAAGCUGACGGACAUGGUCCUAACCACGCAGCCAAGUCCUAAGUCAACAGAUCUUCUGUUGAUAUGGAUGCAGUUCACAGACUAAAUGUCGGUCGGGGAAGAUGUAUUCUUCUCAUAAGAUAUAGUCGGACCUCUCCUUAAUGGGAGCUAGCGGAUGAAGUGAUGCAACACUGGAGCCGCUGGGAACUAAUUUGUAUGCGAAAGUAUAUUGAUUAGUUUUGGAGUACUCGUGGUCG;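 further: selection with 25 µg/mL kanamycin versus none on LB agar overnight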
# test-context: 30 °C
self-splicing fitness (ln) values, listed per item
measured-quantity: self-splicing fitness (ln)

>>> recorded_measurement("AACCAGCAAUAUUACGCAUA")
-0.88
>>> recorded_measurement("AGGAAGCAAUAUUACGACAA")
-1.66
>>> recorded_measurement("UAUAAGCAAUAUUACGAACG")
-0.609
>>> recorded_measurement("CCGCAGCAAUAUUACGAAGA")
-2.83
>>> recorded_measurement("UACGAGCAAUAUUACGACCU")
-2.35
>>> recorded_measurement("AGGGAGCAAUAUUACGUCCU")
-2.66
>>> recorded_measurement("GUGAAGCAAUAUUACGGUAG")
-1.79
>>> recorded_measurement("AAGUAGCAAUAUUACGUCUG")
-0.515
>>> recorded_measurement("GUUAAGCAAUAUUACGUAGG")
-1.73
>>> recorded_measurement("AAGAAGCAAUAUUACGUGCU")
-2.37
>>> recorded_measurement("UGGCAGCAAUAUUACGUUAC")
-4.11
>>> recorded_measurement("CGUGAGCAAUAUUACGCAUC")
-1.85
>>> recorded_measurement("GUUAAGCAAUAUUACGUAUG")
-2.44
>>> recorded_measurement("AAAAAGCAAUAUUACGUGAG")
-0.91
>>> recorded_measurement("CUUAAGCAAUAUUACGAAGG")
-2.89
>>> recorded_measurement("AAAGAGCAAUAUUACGACUA")
-2.38
>>> recorded_measurement("CGGGAGCAAUAUUACGCGUC")
-2.87
>>> recorded_measurement("CACUAGCAAUAUUACGCUCU")
-2.46
>>> recorded_measurement("UCCCAGCAAUAUUACGGGGC")
-2.72
>>> recorded_measurement("UGAUAGCAAUAUUACGAAUU")
-4.02
>>> recorded_measurement("CUUUAGCAAUAUUACGCAGG")
-2.83
>>> recorded_measurement("UACCAGCAAUAUUACGUUUA")
-0.529
>>> recorded_measurement("CGCGAGCAAUAUUACGGCAA")
-4.21
>>> recorded_measurement("GUCUAGCAAUAUUACGGCCA")
-1.87
>>> recorded_measurement("CUAGAGCAAUAUUACGAUGU")
-3.45
>>> recorded_measurement("CACUAGCAAUAUUACGUGUC")
-3.71
>>> recorded_measurement("GUUGAGCAAUAUUACGCAAA")
-2.73
>>> recorded_measurement("UUCUAGCAAUAUUACGCGUU")
-2.47
>>> recorded_measurement("GAGUAGCAAUAUUACGACCA")
-1.81
>>> recorded_measurement("UCUUAGCAAUAUUACGGCCA")
-2.31
>>> recorded_measurement("GCAAAGCAAUAUUACGAGUA")
-2.1
>>> recorded_measurement("AGAGAGCAAUAUUACGGCUA")
-1.86
>>> recorded_measurement("AGCUAGCAAUAUUACGCGUA")
-3.08
>>> recorded_measurement("CGAGAGCAAUAUUACGUGAG")
-1.51
>>> recorded_measurement("GGGUAGCAAUAUUACGUUGU")
-2.46
>>> recorded_measurement("GUUCAGCAAUAUUACGGCCU")
-1.02
>>> recorded_measurement("GGGAAGCAAUAUUACGAGAU")
-2.81
>>> recorded_measurement("CGCAAGCAAUAUUACGGGUG")
-1.59
>>> recorded_measurement("UCACAGCAAUAUUACGUGUC")
-3.55
>>> recorded_measurement("GACUAGCAAUAUUACGUAAG")
-0.946
>>> recorded_measurement("CCACAGCAAUAUUACGAAGA")
-1.5
>>> recorded_measurement("AGCCAGCAAUAUUACGGGAG")
-2.56
>>> recorded_measurement("UUUGAGCAAUAUUACGGCGG")
-1.04
